subject_of_test: T1, BMP-12 (UniProt Q7Z4P5 322-450, limits assumed)
T1 construct: also called BMP12/GDF7
T1 sequence (looked up): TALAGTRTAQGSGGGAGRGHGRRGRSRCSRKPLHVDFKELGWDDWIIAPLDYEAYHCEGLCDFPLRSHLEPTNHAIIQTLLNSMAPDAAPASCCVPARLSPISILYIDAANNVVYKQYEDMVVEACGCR
test: peptide resin, filter plate; load 1: 50 mM Acetic Acid, 0.1 M NaCl, pH 2.9
No end group written: not given here.
quantity_name: 100 mM HAc elution K

{"columns": ["binder", "100 mM HAc elution K"],
 "data": [
  ["Ac-RDLGWQDWIIAPEGYAAFYSDGEK [BMP5 peptide 748]", 6],
  ["Ac-LYVDFSDVGWNDWIVAPPGYHAFYSHGEK [BMP2 Full peptide 747]", 6],
  ["Ac-LYVSDVGWNDWIVK (not fully specified (residue 3); printed as Ac-LYV**SDVGWNDWIVK; also: ** after V3 not explained) [BMP2 C-trunc_2 peptide 746]", 3],
  ["Ac-SDVGWNDWIVAPPGYHAFYCHGEK [BMP2 N-trun peptide 750]", 1],
  ["Ac-SDVGWNDWIVAPPGYHAFYSHGEK [BMP2 N-trun 1S peptide 751]", 1]
]}

[1] Ac-VAPPGYHAFYSHGEK [BMP2 N-trunc_2 peptide 745]
[2] Ac-ELGWDDWIIAPLDYEAYHSEGLK [BMP12 N-trun_1S peptide 749]
Of 1 versus 2 , which is the one with smaller reported 100 mM HAc elution K? Answer format: the label of the selected item. 1

Value source: patent US7754689B2
